- EXPERIMENT_SUMMARY: Acute Toxicity Test (oral, mice)
- Type: in vivo
- EXPERIMENTAL_CONDITIONS: mouse, in vivo, po; male mice
Reported LD50 by item:
MEASURED_QUANTITY: LD50

{"columns": ["COMPOUND", "RESULT"],
 "data": [
  ["CCCCc1nc(C)c(CC(=S)N2CCCC2)c(=O)n1Cc1ccc(-c2ccccc2-c2nnn[nH]2)cc1 [Compound 8]", "3170 mg/kg"],
  ["CCCCc1nc(C)c(CC(=S)N(C)C)c(=O)n1Cc1ccc(-c2ccccc2-c2nnn[nH]2)cc1 [Compound 2]", "> 5000 mg/kg"]
]}

---

Measured LD50 of individual entries
- EXPERIMENT_SUMMARY: Acute Toxicity Test (oral, mice)
- Type: in vivo
- EXPERIMENTAL_CONDITIONS: mouse, in vivo, po; female mice

{"columns": ["COMPOUND", "LD50"],
 "data": [
  ["CCCCc1nc(C)c(CC(=S)N(C)C)c(=O)n1Cc1ccc(-c2ccccc2-c2nnn[nH]2)cc1 [Compound 2]", "> 5000 mg/kg"],
  ["CCCCc1nc(C)c(CC(=S)N2CCCC2)c(=O)n1Cc1ccc(-c2ccccc2-c2nnn[nH]2)cc1 [Compound 8]", "4060 mg/kg"]
]}

---

- Test system: Angiotensin II-induced pressor response
- EXPERIMENT_SUMMARY: In vivo Angiotensin II antagonism in conscious normotensive rats
- EXPERIMENTAL_CONDITIONS: Rattus norvegicus, po; P.O.; conscious normotensive male SD rats; Angiotensin II 0.1 μg/kg; read-out: ID50 (dose of test compound necessary to produce 50% inhibition of Angiotensin II-induced pressor response)
Entries annotated with measured ED50
MEASURED_QUANTITY: ED50

{"columns": ["TEST_SMILES", "RESULT"],
 "data": [
  ["CCCCc1nc(C)c(CC(N)=S)c(=O)n1Cc1ccc(-c2ccccc2-c2nnn[nH]2)cc1", "> 3 mg/kg"],
  ["CCCCc1nc(C)c(CC(=S)N2CCCC2)c(=O)n1Cc1ccc(-c2ccccc2-c2nnn[nH]2)cc1", "0.93 mg/kg"],
  ["CCCCc1nc(C)c(CC(=S)N(CC)CC)c(=O)n1Cc1ccc(-c2ccccc2-c2nnn[nH]2)cc1", "< 3 mg/kg"],
  ["CCCCc1nc(C)c(CC(=S)N2CCCCC2)c(=O)n1Cc1ccc(-c2ccccc2-c2nnn[nH]2)cc1", "< 3 mg/kg"],
  ["CCCCc1nc(C)c(CC(=S)N2CCOCC2)c(=O)n1Cc1ccc(-c2ccccc2-c2nn[nH]n2)cc1", "< 3 mg/kg"],
  ["CCCCc1nc(C)c(CC(=S)N2CCC2)c(=O)n1Cc1ccc(-c2ccccc2-c2nn[nH]n2)cc1", "1.19 mg/kg"],
  ["CCCCc1nc(C)c(CC(=S)N(C)C)c(=O)n1Cc1ccc(-c2ccccc2-c2nnn[nH]2)cc1", "1.1 mg/kg"],
  ["CCCCc1nc(C)c(CC(=S)N2CCCCCCC2)c(=O)n1Cc1ccc(-c2ccccc2-c2nn[nH]n2)cc1", "3.1 mg/kg"],
  ["CCCCc1nc(C)c(CC(=S)N2CCSCC2)c(=O)n1Cc1ccc(-c2ccccc2-c2nn[nH]n2)cc1", "< 3 mg/kg"]
]}
